Provenance of the data: ChEMBL document CHEMBL4665836

# System: Pseudomonas aeruginosa
# METHOD NOTES: Potentiation of imipenem-induced antibacterial activity against carbapenem-resistant Pseudomonas aeruginosa 262-101856 clinical isolate assessed as imipenem MIC at 8 uM by checkerboard assay (reference value: 32 ug/ml)
# Assay type: functional
METRIC NAME: MIC (µg/mL)
Answer with a number only, understood to be in µg/mL.

Reported MIC, compound NC[C@H]1O[C@H](O[C@H]2[C@H](OCCCCCCCCN3CCCNCCNCCCNCC3)[C@@H](O)[C@H](N)C[C@@H]2N)[C@H](N)C[C@@H]1O.O=C(O)C(F)(F)F.O=C(O)C(F)(F)F.O=C(O)C(F)(F)F.O=C(O)C(F)(F)F.O=C(O)C(F)(F)F.O=C(O)C(F)(F)F.O=C(O)C(F)(F)F.O=C(O)C(F)(F)F : ____ 16

* * *

# Tested on: Pseudomonas aeruginosa
# METHOD NOTES: Potentiation of ceftazidime-induced antibacterial activity against carbapenem-resistant Pseudomonas aeruginosa PAO200 harboring mexAB-oprM efflux deficient mutant assessed as ceftazidime MIC at 8 uM by checkerboard assay (reference value: 1 ug/ml)
# Type: functional
Examples of molecules with documented MIC follow.
Answer with a number only, understood to be in µg/mL.

Before answering, review these 2 worked examples.
[
  {
    "SMILES REPR": "N=C(N)NC[C@H]1O[C@H](O[C@H]2[C@H](OCCCCCCCCCCCCN3CCN(c4cc5c(cc4F)c(=O)c(C(=O)O)cn5C4CC4)CC3)[C@@H](O[C@H]3O[C@H](CO)[C@@H](O)[C@H](NC(=N)N)[C@H]3O)[C@H](NC(=N)N)C[C@@H]2NC(=N)N)[C@H](NC(=N)N)C[C@@H]1O.O=C(O)C(F)(F)F.O=C(O)C(F)(F)F.O=C(O)C(F)(F)F.O=C(O)C(F)(F)F.O=C(O)C(F)(F)F.O=C(O)C(F)(F)F",
    "UNIT SYMBOL": "µg/mL",
    "MIC": 0.25
  },
  {
    "SMILES REPR": "NC[C@H]1O[C@H](O[C@H]2[C@H](OCCCCc3cn(CCCCO[C@@H]4[C@@H](O)[C@H](N)C[C@H](N)[C@H]4O[C@H]4O[C@H](CN)[C@@H](O)C[C@H]4N)nn3)[C@@H](O)[C@H](N)C[C@@H]2N)[C@H](N)C[C@@H]1O.O=C(O)C(F)(F)F.O=C(O)C(F)(F)F.O=C(O)C(F)(F)F.O=C(O)C(F)(F)F.O=C(O)C(F)(F)F.O=C(O)C(F)(F)F.O=C(O)C(F)(F)F.O=C(O)C(F)(F)F",
    "UNIT SYMBOL": "µg/mL",
    "MIC": 0.25
  }
]

In the following, a different molecule is considered.
Request - read-out MIC | tested on Pseudomonas aeruginosa | molecule Cl.Cl.Cl.Cl.Cl.NC[C@H]1O[C@H](O[C@H]2[C@H](OCCCCCCCCCCCCN3CCN(c4cc5c(cc4F)c(=O)c(C(=O)O)cn5C4CC4)CC3)[C@@H](O)[C@H](N)C[C@@H]2N)[C@H](N)C[C@@H]1O 0.13

* * *

# Tested on: Pseudomonas aeruginosa
# METHOD NOTES: Antibacterial activity against wild type Pseudomonas aeruginosa PAO1
# Assay type: functional
METRIC NAME: MIC (µg/mL)
Answer with a number only, understood to be in µg/mL.

Reported MIC, molecule Cl.Cl.Cl.Cl.Cl.Cl.NC[C@H]1O[C@H](O[C@H]2[C@H](OCCCCCCCCCCCCN3CCN(c4cc5c(cc4F)c(=O)c(C(=O)O)cn5C4CC4)CC3)[C@@H](O[C@H]3O[C@H](CO)[C@@H](O)[C@H](N)[C@H]3O)[C@H](N)C[C@@H]2N)[C@H](N)C[C@@H]1O : ____ 32

* * *

Examples of molecules with documented fold change (FC) follow.
# Test system: Pseudomonas aeruginosa
# METHOD NOTES: Potentiation of imipenem-induced antibacterial activity against carbapenem-resistant Pseudomonas aeruginosa 108590 clinical isolate assessed as fold reduction in imipenem MIC at 8 uM in presence of beta-lactamase inhibitor, rele-bactam
# Assay type: functional
Could you keep your reply to the number by itself?

[
  {
    "SMILES REPR": "Cl.Cl.Cl.Cl.Cl.NC[C@H]1O[C@H](O[C@H]2[C@H](OCCCCCCCCCCCCN3CCN(c4cc5c(cc4F)c(=O)c(C(=O)O)cn5C4CC4)CC3)[C@@H](O)[C@H](N)C[C@@H]2N)[C@H](N)C[C@@H]1O",
    "EXPERIMENTAL RESULT": 16
  },
  {
    "SMILES REPR": "NC[C@H]1O[C@H](O[C@H]2[C@H](OCCCCCCCCN3CCCNCCNCCCNCC3)[C@@H](O[C@H]3O[C@H](CO)[C@@H](O)[C@H](N)[C@H]3O)[C@H](N)C[C@@H]2N)[C@H](N)C[C@@H]1O.O=C(O)C(F)(F)F.O=C(O)C(F)(F)F.O=C(O)C(F)(F)F.O=C(O)C(F)(F)F.O=C(O)C(F)(F)F.O=C(O)C(F)(F)F.O=C(O)C(F)(F)F.O=C(O)C(F)(F)F.O=C(O)C(F)(F)F",
    "EXPERIMENTAL RESULT": 16
  }
]

Reported fold change (FC), molecule NC[C@H]1O[C@H](O[C@H]2[C@H](OCCCCCCCCN3CCCNCCNCCCNCC3)[C@@H](O)[C@H](N)C[C@@H]2N)[C@H](N)C[C@@H]1O.O=C(O)C(F)(F)F.O=C(O)C(F)(F)F.O=C(O)C(F)(F)F.O=C(O)C(F)(F)F.O=C(O)C(F)(F)F.O=C(O)C(F)(F)F.O=C(O)C(F)(F)F.O=C(O)C(F)(F)F : ____ 16

* * *

# Test system: Pseudomonas aeruginosa
# METHOD NOTES: Potentiation of aztreonam-induced antibacterial activity against carbapenem-resistant Pseudomonas aeruginosa 109084 clinical isolate assessed as fold reduction in aztreonam MIC at 8 uM in presence of beta-lactamase inhibitor, avi-bactam
# Format: functional
Examples of compounds with documented fold change (FC) follow.
Could you keep your reply to the number by itself?

Before answering, review these 2 worked examples.
[
  {
    "SMILES REPR": "NC[C@H]1O[C@H](O[C@H]2[C@H](OCCCCCCCCN3CCCNCCNCCCNCC3)[C@@H](O)[C@H](N)C[C@@H]2N)[C@H](N)C[C@@H]1O.O=C(O)C(F)(F)F.O=C(O)C(F)(F)F.O=C(O)C(F)(F)F.O=C(O)C(F)(F)F.O=C(O)C(F)(F)F.O=C(O)C(F)(F)F.O=C(O)C(F)(F)F.O=C(O)C(F)(F)F",
    "EXPERIMENTAL RESULT": 16
  },
  {
    "SMILES REPR": "NC[C@H]1O[C@H](O[C@H]2[C@H](OCCCCc3cn(CCCCO[C@@H]4[C@@H](O)[C@H](N)C[C@H](N)[C@H]4O[C@H]4O[C@H](CN)[C@@H](O)C[C@H]4N)nn3)[C@@H](O)[C@H](N)C[C@@H]2N)[C@H](N)C[C@@H]1O.O=C(O)C(F)(F)F.O=C(O)C(F)(F)F.O=C(O)C(F)(F)F.O=C(O)C(F)(F)F.O=C(O)C(F)(F)F.O=C(O)C(F)(F)F.O=C(O)C(F)(F)F.O=C(O)C(F)(F)F",
    "EXPERIMENTAL RESULT": 16
  }
]

In the following, a different compound is considered.
Request - read-out fold change (FC) | tested on Pseudomonas aeruginosa | compound Cl.Cl.Cl.Cl.Cl.Cl.NC[C@H]1O[C@H](O[C@H]2[C@H](OCCCCCCCCCCCCN3CCN(c4cc5c(cc4F)c(=O)c(C(=O)O)cn5C4CC4)CC3)[C@@H](O[C@H]3O[C@H](CO)[C@@H](O)[C@H](N)[C@H]3O)[C@H](N)C[C@@H]2N)[C@H](N)C[C@@H]1O 16

* * *

# Test system: Pseudomonas aeruginosa
# METHOD NOTES: Potentiation of imipenem-induced antibacterial activity against carbapenem-resistant Pseudomonas aeruginosa 101885 clinical isolate assessed as imipenem MIC at 8 uM by checkerboard assay (reference value: 4 ug/ml)
# Format: functional
Examples of compounds with documented MIC follow.
Answer with a number only, understood to be in µg/mL.

Before answering, review these 2 worked examples.
[
  {
    "SMILES REPR": "NC[C@H]1O[C@H](O[C@H]2[C@H](OCCCCCCCCN3CCCNCCNCCCNCC3)[C@@H](O)[C@H](N)C[C@@H]2N)[C@H](N)C[C@@H]1O.O=C(O)C(F)(F)F.O=C(O)C(F)(F)F.O=C(O)C(F)(F)F.O=C(O)C(F)(F)F.O=C(O)C(F)(F)F.O=C(O)C(F)(F)F.O=C(O)C(F)(F)F.O=C(O)C(F)(F)F",
    "TARGET OR SYSTEM": "Pseudomonas aeruginosa",
    "MIC (µg/mL)": 2
  },
  {
    "SMILES REPR": "NC[C@H]1O[C@H](O[C@H]2[C@H](OCCCCc3cn(CCCCO[C@@H]4[C@@H](O)[C@H](N)C[C@H](N)[C@H]4O[C@H]4O[C@H](CN)[C@@H](O)C[C@H]4N)nn3)[C@@H](O)[C@H](N)C[C@@H]2N)[C@H](N)C[C@@H]1O.O=C(O)C(F)(F)F.O=C(O)C(F)(F)F.O=C(O)C(F)(F)F.O=C(O)C(F)(F)F.O=C(O)C(F)(F)F.O=C(O)C(F)(F)F.O=C(O)C(F)(F)F.O=C(O)C(F)(F)F",
    "TARGET OR SYSTEM": "Pseudomonas aeruginosa",
    "MIC (µg/mL)": 4
  }
]

In the following, a different compound is considered.
Request - read-out MIC | tested on Pseudomonas aeruginosa | compound N=C(N)NC[C@H]1O[C@H](O[C@H]2[C@H](OCCCCCCCCCCCCN3CCN(c4cc5c(cc4F)c(=O)c(C(=O)O)cn5C4CC4)CC3)[C@@H](O[C@H]3O[C@H](CO)[C@@H](O)[C@H](NC(=N)N)[C@H]3O)[C@H](NC(=N)N)C[C@@H]2NC(=N)N)[C@H](NC(=N)N)C[C@@H]1O.O=C(O)C(F)(F)F.O=C(O)C(F)(F)F.O=C(O)C(F)(F)F.O=C(O)C(F)(F)F.O=C(O)C(F)(F)F.O=C(O)C(F)(F)F 2
